FYI, the data here is from PubChem BioAssay (NCI).

System: HCT-116 colon
protocolText: NCI-60 one-dose screen, 48 h (100 = growth as untreated, 0 = no growth, -100 = all killed)
assaySetup: 10 µM unless noted
Description: Growth inhibition of the HCT-116 human tumor cell line is measured as a screen for anti-cancer activity. Cells are grown in 96 well plates and exposed to the test compound for 48 hours. Compounds are tested at a single concentration, which is 10^-5 M for most compounds. The reported endpoint is percent growth (GI% or GIPRCNT), where numbers from 0 - 100% represent growth inhibition, and numbers from -100% - 0 represent cell death. For example, a value of 40 represents 60% growth inhibition. […]
This is part of a sample that, as a whole, favours compounds with a hit. Of some 83,000 tested, about 20% had one in any assay.
parameterMeasured: growth (%)
Output spec: scalar in %, unitless text.

Look over these answered cases.
{"columns": ["compound", "unitName", "growth"],
 "data": [
  ["COCCn1cc(-c2nc(-c3cn(CCOC)c4ncccc34)cs2)c2cc(F)ccc21", "%", 61.8],
  ["Cn1c(=O)c2[nH]c(SC/C(=N/O)c3ccc(Br)cc3)nc2n(C)c1=O", "%", 28.3],
  ["CC(C)NS(=O)(=O)/N=C1\\NC(=O)NC1=C(Cl)Cl", "%", 102],
  ["Cc1ccc(-c2nc(SCC(=O)N3CCN(c4cc5c(cc4F)c(=O)c(C(=O)O)cn5C4CC4)CC3)nc(Cl)c2C#N)cc1", "%", 101],
  ["COc1cc(/C=C/c2cn[nH]c2-c2ccc(C)cc2)cc(OC)c1OC", "%", 11.7],
  ["COc1nc(/C=C\\Nc2ccc3c(c2)OCCOCCOCCOCCO3)nc(OC)n1", "%", 95.2],
  ["COc1cc(/C=N/NC(=O)c2ccc(-n3cc(-c4ccccc4)nn3)cc2)cc(OC)c1OC", "%", 89.5],
  ["Cn1cc(-c2nonc2-c2c[nH]c3ccccc23)c2cc(Br)ccc21", "%", 25.6]
]}

Consider the compound shown here: "COc1cc(-c2nccc3[nH]c(-c4cccc5[nH]ccc45)nc23)cc(OC)c1OC" What is its recorded growth?
4.28

Consider the compound shown here: "Cc1ccc2cnc(N)c(C#Cc3cc(C(=O)Nc4ccc(CN5CCN(C)CC5)c(C(F)(F)F)c4)cnc3C)c2c1" What is its recorded growth?
-83.9

Consider the compound shown here: "c1ccc(Cn2cc3c(c2-c2ccccc2)CCc2cnoc2-3)cc1" What is its recorded growth?
44.5

Consider the compound shown here: "O=C(N/N=C/c1ccc(Cl)cc1)c1ccc(NC(=O)c2ccccn2)cc1" What is its recorded growth?
5.15

Consider the compound shown here: "CSc1nc(-c2ccco2)c(C#N)c(=O)n1C" What is its recorded growth?
100

Consider the compound shown here: COc1ccc(C(O)c2cc3c(N)c(C(=O)Nc4cccc5ccccc45)sc3nc2C)cc1 (centres undefined) What is its recorded growth?
6.27
